Organism: Oryctolagus cuniculus
MEASUREMENT_PROTOCOL: Effect on intraocular pressure in right eye was tested by using transition ocular hypertension model at 20 min.
Assay type: functional
IOP for assorted compounds
The response must be a number in mmHg with no trailing unit.

COMPOUND	U	IOP
CCCCCOC(=O)CCC(=O)/N=c1/sc(S(N)(=O)=O)nn1C	mmHg	25.17
NS(=O)(=O)c1nnc(NC(=O)CCCC(=O)O)s1	mmHg	19
COC(=O)CCC(=O)Nc1nnc(S(N)(=O)=O)s1	mmHg	19.5
NS(=O)(=O)c1nnc(NC(=O)CCCCCCCC(=O)O)s1	mmHg	19.5

Name the recorded IOP for CCC(C)OC(=O)CCC(=O)Nc1nnc(S(N)(=O)=O)s1 (stereo unspecified) .
19

Item: CCCCCOC(=O)CCC(=O)Nc1nnc(S(N)(=O)=O)s1
20

---

Organism: Oryctolagus cuniculus
MEASUREMENT_PROTOCOL: Effect on intraocular pressure in right eye was tested by using transition ocular hypertension model at 20 min.
Format: functional
MEASURE: IOP (mmHg)
The response must be a number in mmHg with no trailing unit.

Recorded results for 5 molecules are shown here.
MOLECULE	U	IOP
COC(=O)CCC(=O)/N=c1/sc(S(N)(=O)=O)nn1C	mmHg	20.83
NS(=O)(=O)c1nnc(NC(=O)CCCCC(=O)O)s1	mmHg	20
CCOC(=O)CCC(=O)Nc1nnc(S(N)(=O)=O)s1	mmHg	17.33
CC(C)(C)NC[C@H](O)COc1nsnc1N1CCOCC1 [TIMOLOL]	mmHg	19.38
NS(=O)(=O)c1nnc(NC(=O)CCC(=O)O)s1	mmHg	17.17

Name the recorded IOP for COC(=O)CC(=O)Nc1nnc(S(N)(=O)=O)s1 .
19.67

Item: NCCCCC(=O)Nc1nnc(S(N)(=O)=O)s1
20.83

---

MEASUREMENT_PROTOCOL: physchem
APPLIED_CONDITIONS: phosphate buffer
Description: Solubility (in phosphate buffer)
Tag: Met if measured solubility is not below 3 mM, Not met if it is.

Consider the following illustrative entries.
COC(=O)CCCCCCCC(=O)Nc1nnc(S(N)(=O)=O)s1 Not met
COC(=O)CCC(=O)/N=c1/sc(S(N)(=O)=O)nn1C Met
CCCCCOC(=O)CCC(=O)Nc1nnc(S(N)(=O)=O)s1 Not met

State whether the measured solubility reaches 3 mM, counting equality as reaching it, for COC(=O)CCC(=O)Nc1nnc(S(N)(=O)=O)s1
Met

Item: CCCCCOC(=O)CCC(=O)/N=c1/sc(S(N)(=O)=O)nn1C
Not met

Item: COC(=O)CC(=O)Nc1nnc(S(N)(=O)=O)s1
Met

---

Species on record: Oryctolagus cuniculus
MEASUREMENT_PROTOCOL: Effect on intraocular pressure in left eye was tested by using transition ocular hypertension model at 20 min.
Assay type: functional
IOP for assorted compounds
The response must be a number in mmHg with no trailing unit.

COMPOUND	IOP / mmHg
NCCCCC(=O)Nc1nnc(S(N)(=O)=O)s1	21.5

Name the recorded IOP for COC(=O)CCC(=O)Nc1nnc(S(N)(=O)=O)s1 .
20.17

Item: CC(C)(C)NC[C@H](O)COc1nsnc1N1CCOCC1
21.97

Item: NS(=O)(=O)c1nnc(NC(=O)CCCC(=O)O)s1
22

Item: COC(=O)CCC(=O)/N=c1/sc(S(N)(=O)=O)nn1C
21.5
